Value source: patent US20230265116A1

Test system: EGFR Del19/T790M/C797S (H1975-clone #28)
Test: EGFR degradation HTRF assay, H1975-clone #28 DTC cells
Assay type: cell-based
Conditions: H1975 # 28 DTC cells; maximum percentage of inhibition (degradation)
Experimental: H1975-clone #28(Del19/T790M/C797S) and H1975-clone #23(Del19/C797S). EGFR-Del19/T790M/C797S and EGFR-Del19/C797S were stably expressed in H1975 cell lines by lentivirus-mediated over-expression, respectively. […] The inhibition (degradation) percentage of the compound was calculated by the following equation: Inhibition percentage of Compound=100-100×(Signal-low control)/(High control-low control), wherein signal=each test compound group […]
MEASURED_ENDPOINT: Dmax (%) H1975 # 28 DTC

COMPOUND	SYSTEM_UNDER_TEST	MEASURED_ENDPOINT	REPORTED_RESULT
CCc1ccc2c(P(C)(C)=O)c(Nc3nc(Nc4cc(CC)c(N5CCC(C6CCN(CCc7cc(F)c([C@H]8CCC(=O)NC8=O)c(F)c7)CC6)CC5)cc4OC)ncc3Br)ccc2n1	EGFR Del19/T790M/C797S (H1975-clone #28)	Dmax (%) H1975 # 28 DTC	75.21
CCc1cc(Nc2ncc(Br)c(Nc3ccc4nc(C)ccc4c3P(C)(C)=O)n2)c(OC)cc1N1CCC(N2CCN(CCc3cccc4c3C(C)(C)C(=O)N4C3CCC(=O)NC3=O)CC2)CC1 (stereo not shown)	EGFR Del19/T790M/C797S (H1975-clone #28)	Dmax (%) H1975 # 28 DTC	66.48
CCOc1cc(N2CCC(N3CCN(CCc4cc(F)c5c(c4)C4(CC4)C(=O)N5C4CCC(=O)NC4=O)CC3)CC2)c(CC)cc1Nc1ncc(Br)c(Nc2ccc3nc(CC)ccc3c2P(C)(C)=O)n1 (stereo not shown)	EGFR Del19/T790M/C797S (H1975-clone #28)	Dmax (%) H1975 # 28 DTC	77.5
CCOc1cc(N2CCC(N3CCN(CCc4c(C)ccc5c4oc(=O)n5C4CCC(=O)NC4=O)CC3)CC2)c(CC)cc1Nc1ncc(Br)c(Nc2ccc3nc(CC)ccc3c2P(C)(C)=O)n1 (stereo not shown)	EGFR Del19/T790M/C797S (H1975-clone #28)	Dmax (%) H1975 # 28 DTC	81.71
CCc1ccc2c(P(C)(C)=O)c(Nc3nc(Nc4cc(C5CC5)c(N5CCC(N6CCN(CCc7cccc8c7oc(=O)n8C7CCC(=O)NC7=O)CC6)CC5)cc4OC)ncc3Br)ccc2n1 (stereo not shown)	EGFR Del19/T790M/C797S (H1975-clone #28)	Dmax (%) H1975 # 28 DTC	82.5
CCc1cc(Nc2ncc(Br)c(Nc3ccc4c(=O)n(C)ncc4c3P(C)(C)=O)n2)c(OC)cc1N1CCC(N2CCN(CCc3cccc4c3C3(CC3)C(=O)N4C3CCC(=O)NC3=O)CC2)CC1 (stereo not shown)	EGFR Del19/T790M/C797S (H1975-clone #28)	Dmax (%) H1975 # 28 DTC	80.03
CCc1cnc2c(P(C)(C)=O)c(Nc3nc(Nc4cc(CC)c(N5CCC(N6CCN(C(=O)[C@@H]7CCN(c8cc(F)c([C@H]9CCC(=O)NC9=O)c(F)c8)C7)CC6)CC5)cc4OC)ncc3Br)ccc2n1	EGFR Del19/T790M/C797S (H1975-clone #28)	Dmax (%) H1975 # 28 DTC	80.57
CCOc1cc(N2CCC(N3CCN(CCc4cc5oc(=O)n(C6CCC(=O)NC6=O)c5cc4F)CC3)CC2)c(CC)cc1Nc1ncc(Br)c(Nc2cc(F)c3nc(CC)ccc3c2P(C)(C)=O)n1 (stereo not shown)	EGFR Del19/T790M/C797S (H1975-clone #28)	Dmax (%) H1975 # 28 DTC	86.84
CCOc1cc(N2CCC(N3CCN(C[C@H]4CCN(c5cccc6c5oc(=O)n6C5CCC(=O)NC5=O)C4)CC3)CC2)c(CC)cc1Nc1ncc(Br)c(Nc2ccc3nc(CC)ccc3c2P(C)(C)=O)n1 (stereo partly shown)	EGFR Del19/T790M/C797S (H1975-clone #28)	Dmax (%) H1975 # 28 DTC	77.5
CCc1ccc2c(P(C)(C)=O)c(Nc3nc(Nc4cc(CC)c(N5CCC(N6CCN(CCc7cccc8c7n(CC)c(=O)n8C7CCC(=O)NC7=O)CC6)CC5)cc4OC)ncc3Br)ccc2n1 (stereo not shown)	EGFR Del19/T790M/C797S (H1975-clone #28)	Dmax (%) H1975 # 28 DTC	77.04
CCc1ccc2c(P(C)(C)=O)c(Nc3nc(Nc4cc(CC)c(N5CCC(N6CCN(C(=O)[C@@H]7CCN(c8cc(F)c([C@H]9CCC(=O)NC9=O)c(F)c8)C7)CC6)CC5)cc4OC4CC4)ncc3Br)ccc2n1	EGFR Del19/T790M/C797S (H1975-clone #28)	Dmax (%) H1975 # 28 DTC	81.86
CCOc1cc(N2CCC(N3CCN(CCc4c(F)ccc5c4n(CC)c(=O)n5C4CCC(=O)NC4=O)CC3)CC2)c(CC)cc1Nc1ncc(Br)c(Nc2ccc3c(=O)n(CC)ncc3c2P(C)(C)=O)n1 (stereo not shown) [Example 596]	EGFR Del19/T790M/C797S (H1975-clone #28)	Dmax (%) H1975 # 28 DTC	84.17
CCc1cc(Nc2ncc(Br)c(Nc3ccc4c(=O)n(CC)ncc4c3P(C)(C)=O)n2)c(OC)cc1N1CCC(N2CCN(CCc3cc(F)c([C@H]4CCC(=O)NC4=O)c(F)c3)CC2)CC1	EGFR Del19/T790M/C797S (H1975-clone #28)	Dmax (%) H1975 # 28 DTC	87.49
